- SYSTEM: MCH-5 (Homo sapiens, UniProt Q14790)
- Sequence (Q14790 217-374 limits assumed, species assumed): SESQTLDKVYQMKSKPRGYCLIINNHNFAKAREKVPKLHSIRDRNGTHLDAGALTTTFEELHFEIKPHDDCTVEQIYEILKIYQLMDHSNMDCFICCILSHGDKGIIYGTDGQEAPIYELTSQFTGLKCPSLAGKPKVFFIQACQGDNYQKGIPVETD
- Sequence (Q14790 385-479 limits assumed, species assumed): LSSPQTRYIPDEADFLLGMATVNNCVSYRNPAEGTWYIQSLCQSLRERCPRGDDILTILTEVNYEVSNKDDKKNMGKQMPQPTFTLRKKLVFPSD
- TEST SUMMARY: Dissociation constant Ki and irreversible rate constant k3 for irreversible inhibitors (Mch5)
- Assay type: biochemical
- MEASUREMENT CONDITIONS: continuous assay 60 min, reaction initiated by adding enzyme to substrate-inhibitor mixture
Catalogue of compounds with associated Ki

>  <COMPOUND>
C[C@H](NC(=O)C(=O)Nc1ccccc1-c1ccccc1)C(=O)N[C@@H](CC(=O)O)C(=O)COc1ccccc1F [Example 28]

>  <Ki>
5.8 nM

$$$$
>  <COMPOUND>
CC(C)[C@H](NC(=O)C(=O)Nc1ccccc1F)C(=O)N[C@@H](CC(=O)O)C(=O)COc1c(F)c(F)cc(F)c1F [Example 90]

>  <Ki>
40 nM

$$$$
>  <COMPOUND>
CC(C)[C@H](NC(=O)C(=O)NCCc1ccccc1)C(=O)N[C@@H](CC(=O)O)C(=O)COc1c(F)c(F)cc(F)c1F [Example 80]

>  <Ki>
162 nM

$$$$

INPUT: Value lookup for Ki; key = CC(C)[C@H](NC(=O)C(=O)Nc1ccc(F)cc1)C(=O)N[C@@H](CC(=O)O)C(=O)COc1c(F)c(F)cc(F)c1F [Example 91]
OUTPUT: 15 nM

---

Documented MCH-5 k3/Ki across a set of molecules
- SYSTEM: MCH-5 (Homo sapiens)
- TEST SUMMARY: Dissociation constant Ki and irreversible rate constant k3 for irreversible inhibitors (Mch5)
- Assay type: biochemical
- MEASUREMENT CONDITIONS: continuous assay 60 min, reaction initiated by adding enzyme to substrate-inhibitor mixture

# count of solved cases: 2
>  <MOLECULE>
C[C@H](NC(=O)C(=O)Nc1ccccc1I)C(=O)N[C@@H](CC(=O)O)C(=O)COC(=O)c1c(Cl)cccc1Cl [Example 75]

>  <MEASURED>
551,000 moles^−1 seconds^−1

$$$$
>  <MOLECULE>
CC(C)[C@H](NC(=O)C(=O)Nc1cccc2ccccc12)C(=O)N[C@@H](CC(=O)O)C(=O)COc1cccc2ccccc12

>  <MEASURED>
177,000 moles^−1 seconds^−1

$$$$

INPUT: Need MCH-5 k3/Ki of C[C@H](NC(=O)C(=O)Nc1cc(C(F)(F)F)ccc1N1CCCC1)C(=O)N[C@@H](CC(=O)O)C(=O)COP(=O)(c1ccccc1)c1ccccc1 , thanks.
OUTPUT: 933,000 moles^−1 seconds^−1

INPUT: Entry C[C@H](NC(=O)C(=O)Nc1ccccc1Cl)C(=O)N[C@@H](CC(=O)O)C(=O)COP(=O)(c1ccccc1)c1ccccc1 [Example 57] : reported MCH-5 k3/Ki = ?
OUTPUT: 2,330,000 moles^−1 seconds^−1

---

- SYSTEM: mICE (Mus musculus)
- Sequence (P29452 123-296 limits assumed): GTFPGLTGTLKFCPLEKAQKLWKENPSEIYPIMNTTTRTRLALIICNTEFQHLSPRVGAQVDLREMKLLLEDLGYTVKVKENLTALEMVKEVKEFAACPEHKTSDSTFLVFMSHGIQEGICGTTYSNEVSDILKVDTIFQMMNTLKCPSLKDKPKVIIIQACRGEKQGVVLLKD
- Sequence (P29452 315-402 limits assumed): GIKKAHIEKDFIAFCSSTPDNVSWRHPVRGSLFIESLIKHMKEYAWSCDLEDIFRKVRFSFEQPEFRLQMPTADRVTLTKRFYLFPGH
- TEST SUMMARY: Dissociation constant Ki and irreversible rate constant k3 for irreversible inhibitors (ICE)
- Assay type: biochemical
- MEASUREMENT CONDITIONS: continuous assay 60 min, reaction initiated by adding enzyme to substrate-inhibitor mixture
REPORTED ENDPOINT: Ki (nM)
Write the value in nM as a bare number.

Some molecules with known Ki results, for comparison:
>  <SAMPLE SMILES>
C[C@H](NC(=O)C(=O)Nc1ccccc1I)C(=O)N[C@@H](CC(=O)O)C(=O)COP(=O)(c1ccccc1)c1ccccc1

>  <REPORTED ENDPOINT>
Ki

>  <MEASURED>
303

$$$$
>  <SAMPLE SMILES>
C[C@H](NC(=O)C(=O)Nc1ccccc1-c1ccccc1)C(=O)N[C@@H](CC(=O)O)C(=O)COP(=O)(c1ccccc1)c1ccccc1

>  <REPORTED ENDPOINT>
Ki

>  <MEASURED>
22

$$$$

INPUT: What measured Ki goes with C[C@H](NC(=O)C(=O)Nc1ccccc1F)C(=O)N[C@@H](CC(=O)O)C(=O)COc1c(F)c(F)cc(F)c1F ?
OUTPUT: 25

INPUT: Returns the measured Ki for the input molecule. Input: CC(C)[C@H](NC(=O)C(=O)Nc1ccccc1Br)C(=O)N[C@@H](CC(=O)O)C(=O)COc1c(F)c(F)cc(F)c1F
OUTPUT: 9

INPUT: What does the data say about its Ki? Entry: C[C@H](NC(=O)C(=O)Nc1cc(C(F)(F)F)ccc1N1CCCC1)C(=O)N[C@@H](CC(=O)O)C(=O)COP(=O)(c1ccccc1)c1ccccc1
OUTPUT: 5.3

INPUT: For the molecule shown here, CC(C)[C@H](NC(=O)C(=O)NCc1ccccc1)C(=O)N[C@@H](CC(=O)O)C(=O)COc1c(F)c(F)cc(F)c1F , give the reported Ki.
OUTPUT: 6

---

- SYSTEM: MCH-2 (Homo sapiens, UniProt P55212)
- Sequence (P55212 24-179 limits assumed): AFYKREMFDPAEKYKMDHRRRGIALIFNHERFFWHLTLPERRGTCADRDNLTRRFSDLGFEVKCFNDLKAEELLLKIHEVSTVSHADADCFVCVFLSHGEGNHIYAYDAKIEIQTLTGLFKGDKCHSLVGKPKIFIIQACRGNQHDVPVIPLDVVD
- Sequence (P55212 194-293 limits assumed): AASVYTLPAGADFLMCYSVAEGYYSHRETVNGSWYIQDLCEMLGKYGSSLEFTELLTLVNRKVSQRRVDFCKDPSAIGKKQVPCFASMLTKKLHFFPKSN
- TEST SUMMARY: Dissociation constant Ki and irreversible rate constant k3 for irreversible inhibitors (Mch2)
- Type: biochemical
- MEASUREMENT CONDITIONS: continuous assay 60 min, reaction initiated by adding enzyme to substrate-inhibitor mixture
A collection of compounds and their measured MCH-2 k3/Ki

Worked cases, MCH-2 k3/Ki given:
>  <COMPOUND>
CC(C)[C@H](NC(=O)C(=O)Nc1ccccn1)C(=O)N[C@@H](CC(=O)O)C(=O)COc1c(F)c(F)cc(F)c1F

>  <MCH-2 k3/Ki>
11,600 moles^−1 seconds^−1

$$$$
>  <COMPOUND>
CC(C)[C@H](NC(=O)C(=O)Nc1ccccc1C(C)(C)C)C(=O)N[C@@H](CC(=O)O)C(=O)COc1c(F)c(F)cc(F)c1F

>  <MCH-2 k3/Ki>
112,000 moles^−1 seconds^−1

$$$$
>  <COMPOUND>
CC(C)[C@H](NC(=O)C(=O)NC(c1ccccc1)c1ccccc1)C(=O)N[C@@H](CC(=O)O)C(=O)COc1c(F)c(F)cc(F)c1F

>  <MCH-2 k3/Ki>
1,430 moles^−1 seconds^−1

$$$$
>  <COMPOUND>
CC(C)[C@H](NC(=O)C(=O)Nc1ccccc1)C(=O)N[C@@H](CC(=O)O)C(=O)COc1c(F)c(F)cc(F)c1F

>  <MCH-2 k3/Ki>
25,500 moles^−1 seconds^−1

$$$$

INPUT: Dear colleague, I am looking for the recorded MCH-2 k3/Ki of the following compound: C[C@H](NC(=O)C(=O)Nc1ccccc1I)C(=O)N[C@@H](CC(=O)O)C(=O)COC(=O)c1c(Cl)cccc1Cl [Example 75]
OUTPUT: 28,200 moles^−1 seconds^−1

INPUT: Please report the recorded MCH-2 k3/Ki for CC(C)[C@H](NC(=O)C(=O)Nc1ccccc1-c1ccccc1)C(=O)N[C@@H](CC(=O)O)C(=O)COc1c(F)c(F)cc(F)c1F .
OUTPUT: 31,700 moles^−1 seconds^−1

INPUT: Which MCH-2 k3/Ki is listed for C[C@H](NC(=O)C(=O)NCc1ccccc1)C(=O)N[C@@H](CC(=O)O)C(=O)COc1c(F)c(F)cc(F)c1F ?
OUTPUT: 42,800 moles^−1 seconds^−1

INPUT: What value of MCH-2 k3/Ki has been recorded for this entry: C[C@H](NC(=O)C(=O)NCc1cccc2ccccc12)C(=O)N[C@@H](CC(=O)O)C(=O)COC(=O)c1c(Cl)cccc1Cl
OUTPUT: 214,000 moles^−1 seconds^−1

INPUT: What does the data say about its MCH-2 k3/Ki? Entry: CC(C)[C@H](NC(=O)C(=O)Nc1cccc2ccccc12)C(=O)NC(CC(=O)O)C(=O)CF (mixture of isomers)
OUTPUT: 199,000 moles^−1 seconds^−1

INPUT: Which MCH-2 k3/Ki is listed for C[C@H](NC(=O)C(=O)Nc1ccccc1F)C(=O)N[C@@H](CC(=O)O)C(=O)COC(=O)c1c(Cl)cccc1Cl ?
OUTPUT: 129,000 moles^−1 seconds^−1

INPUT: Fill in: MCH-2 k3/Ki of C[C@H](NC(=O)C(=O)Nc1cccc2c1CCCC2)C(=O)N[C@@H](CC(=O)O)C(=O)COP(=O)(c1ccccc1)c1ccccc1 [Example 48] is ___
OUTPUT: 132,000 moles^−1 seconds^−1

INPUT: Endpoint output: MCH-2 k3/Ki of CC(C)[C@H](NC(=O)C(=O)Nc1ccccc1C(F)(F)F)C(=O)N[C@@H](CC(=O)O)C(=O)COc1c(F)c(F)cc(F)c1F . Value?
OUTPUT: 261,000 moles^−1 seconds^−1

---

- SYSTEM: CPP32 (Homo sapiens)
- Sequence (P42574 29-175 limits assumed): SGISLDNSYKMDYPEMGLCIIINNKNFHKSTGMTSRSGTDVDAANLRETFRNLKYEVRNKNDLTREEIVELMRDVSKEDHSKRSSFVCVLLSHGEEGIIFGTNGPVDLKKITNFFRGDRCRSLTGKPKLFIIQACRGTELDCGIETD
- Sequence (P42574 176-277 limits assumed): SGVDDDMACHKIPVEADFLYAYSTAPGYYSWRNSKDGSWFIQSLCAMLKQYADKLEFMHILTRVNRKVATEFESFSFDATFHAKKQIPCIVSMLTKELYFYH
- TEST SUMMARY: Dissociation constant Ki and irreversible rate constant k3 for irreversible inhibitors (CPP32)
- Type: biochemical
- MEASUREMENT CONDITIONS: continuous assay 60 min, reaction initiated by adding enzyme to substrate-inhibitor mixture
REPORTED ENDPOINT: Ki (nM)
Report as a plain number; the unit nM is understood.

Example entries and their recorded answers appear below.
>  <COMPOUND>
CC(C)[C@H](NC(=O)C(=O)NC1CCCc2ccccc21)C(=O)N[C@@H](CC(=O)O)C(=O)COc1c(F)c(F)cc(F)c1F (stereo partly shown) [Example 104]

>  <VALUE UNITS>
nM

>  <MEASURED>
84

$$$$
>  <COMPOUND>
C[C@H](NC(=O)C(=O)Nc1cccc2c1CCCC2)C(=O)N[C@@H](CC(=O)O)C(=O)COP(=O)(c1ccccc1)c1ccccc1 [Example 61]

>  <VALUE UNITS>
nM

>  <MEASURED>
69

$$$$
>  <COMPOUND>
CC(C)[C@H](NC(=O)C(=O)Nc1ccccc1Cl)C(=O)N[C@@H](CC(=O)O)C(=O)COc1c(F)c(F)cc(F)c1F [Example 105]

>  <VALUE UNITS>
nM

>  <MEASURED>
122

$$$$

Let's switch to this compound now.
INPUT: Data request, read-out Ki, for C[C@H](NC(=O)C(=O)Nc1cccc2c1CCCC2)C(=O)N[C@@H](CC(=O)O)C(=O)COP(=O)(c1ccccc1)c1ccccc1 [Example 48]
OUTPUT: 69
